- study_system: UniProt:P18901
- Sequence (P18901 whole entry): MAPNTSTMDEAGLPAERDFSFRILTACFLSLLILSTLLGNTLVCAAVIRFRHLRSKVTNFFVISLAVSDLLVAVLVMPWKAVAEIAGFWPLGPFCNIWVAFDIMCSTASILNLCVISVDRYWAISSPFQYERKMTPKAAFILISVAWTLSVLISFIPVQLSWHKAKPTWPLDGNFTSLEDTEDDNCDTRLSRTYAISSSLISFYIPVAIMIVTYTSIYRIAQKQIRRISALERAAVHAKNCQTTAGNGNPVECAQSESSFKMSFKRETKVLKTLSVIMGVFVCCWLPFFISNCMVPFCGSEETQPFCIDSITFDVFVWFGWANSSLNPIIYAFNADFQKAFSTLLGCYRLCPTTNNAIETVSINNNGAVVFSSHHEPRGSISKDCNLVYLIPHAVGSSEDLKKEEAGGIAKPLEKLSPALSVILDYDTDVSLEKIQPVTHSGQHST
- method_notes: Compound was evaluated for binding affinity to Dopamine receptor D1 labeled with [3H]-SCH- 23390 (0.3 nM) in rat striatal membranes
property_name: IC50

CCCN(CCC)[C@H]1CCn2cccc2C1: 14.5 µM
CCCN(CCC)C1Cc2cccn3ncc(c23)C1 (centres undefined): > 100 µM
NC1Cc2cccn3ncc(c23)C1 (centres undefined): > 100 µM

In the following, a different molecule is considered.
Q: Looking for the measured IC50 of CCCNC1Cc2cccn3ncc(c23)C1 (centres undefined) , can you help?
Result: > 100 µM

====

Known IC50 of a selection of compounds
- study_system: D(2) dopamine receptor (Rattus norvegicus, UniProt P61169)
- Sequence (P61169 whole entry): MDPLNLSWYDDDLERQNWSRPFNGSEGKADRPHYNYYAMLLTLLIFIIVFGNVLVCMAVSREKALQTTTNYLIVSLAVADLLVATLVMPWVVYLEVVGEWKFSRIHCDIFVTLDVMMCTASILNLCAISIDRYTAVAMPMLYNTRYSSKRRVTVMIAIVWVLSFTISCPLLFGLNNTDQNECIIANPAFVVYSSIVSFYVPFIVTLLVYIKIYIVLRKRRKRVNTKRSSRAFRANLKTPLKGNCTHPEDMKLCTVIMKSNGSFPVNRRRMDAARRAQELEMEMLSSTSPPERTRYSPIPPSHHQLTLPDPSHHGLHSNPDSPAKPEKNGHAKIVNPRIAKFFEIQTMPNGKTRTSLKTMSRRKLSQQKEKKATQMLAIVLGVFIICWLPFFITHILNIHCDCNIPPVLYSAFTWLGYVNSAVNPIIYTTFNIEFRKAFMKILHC
- method_notes: Compound was evaluated for binding affinity to Dopamine receptor D2 labeled with [3H]spiroperidol (0.5 nM) in rat striatal membranes
- Format: cell membranes, Striatum, Membrane
Provide the reading as a plain figure in µM.

CCCN(CCC)[C@H]1CCn2cccc2C1: 7.1

Now consider the entry below.
Q: I have this compound here, CCCN(CCC)C1Cc2cccn3ncc(c23)C1 (centres undefined) , and I need its recorded IC50.
Result: 50.4
